The measured values listed here are drawn from patent EP1254122B1.

# System: Hep2
# Assay Remarks: Inhibition of cell growth, Hep2 cells
# Type: cell-based
# Condition Notes: Homo sapiens, HEp-2, 72 h, 37°C, three days, evaluated by microscope against untreated reference cells, read-out: IC50-Wert (50%ige Hemmung des Zellwachstums in µg/ml)
Measured Property: IC50 (µg/mL)

OC[C@@H](O)[C@@H](O)[C@H](O)c1nnc2ccccc2n1 [Verbindung h] | 150
CC(C)NC(=O)Cc1nnc2ccccc2n1 [Verbindung l] | 100
COC(=O)Cc1nnc2ccccc2n1 [Verbindung e] | 100
